- targetEntity: Delta-type opioid receptor (Homo sapiens, UniProt P41143)
- Sequence (P41143 whole entry): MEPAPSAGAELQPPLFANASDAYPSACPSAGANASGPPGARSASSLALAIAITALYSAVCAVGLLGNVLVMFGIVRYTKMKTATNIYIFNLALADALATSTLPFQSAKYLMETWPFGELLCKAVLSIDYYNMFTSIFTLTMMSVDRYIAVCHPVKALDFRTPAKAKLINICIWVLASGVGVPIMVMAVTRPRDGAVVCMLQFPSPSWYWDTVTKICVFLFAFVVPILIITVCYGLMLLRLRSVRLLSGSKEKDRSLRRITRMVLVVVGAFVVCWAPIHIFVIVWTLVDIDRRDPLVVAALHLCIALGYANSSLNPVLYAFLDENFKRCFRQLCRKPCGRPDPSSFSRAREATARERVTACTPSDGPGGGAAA
- protocolDescription: Agonistic activity towards Opioid receptor delta 1
EC50: recorded values
Write the value in nM as a bare number.

[
  {
    "cpdSmiles": "C/C=C1\\C[C@@]23Cc4c([nH]c5ccccc45)[C@@H]1[C@@]21CCN(C)C3Cc2ccc(OC)c(O)c21",
    "targetEntity": "Delta-type opioid receptor (Homo sapiens, UniProt P41143)",
    "unitTag": "nM",
    "EC50": 221
  }
]

Query string: Which EC50 is reported for this molecule? `COc1ccc2c(c1O)[C@]13CCN(C)C(C2)[C@]12CCC(=O)[C@H]3/C(=C(\C)c1ccccc1)C2`
Result string: 72.3

Query string: Query `COc1ccc2c(c1O)[C@]13CCN(C)C(C2)[C@]12CCC(=O)[C@H]3/C(=C/c1ccccc1)C2` next
Result string: 4.19

Query string: Query `COc1ccc2c(c1O)[C@]13CCN(C)C(C2)[C@@]12C/C(=C\c1ccccc1)[C@@H]3c1[nH]c3ccccc3c1C2` next
Result string: 42.6
